Target: Genome polyprotein (dengue virus type 2, UniProt P29990)
Sequence (P29990 1346-1475 limits assumed): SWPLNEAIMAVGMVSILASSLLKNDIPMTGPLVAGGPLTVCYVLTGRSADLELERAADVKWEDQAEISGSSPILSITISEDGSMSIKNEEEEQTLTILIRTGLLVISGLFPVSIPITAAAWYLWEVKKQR
Sequence (P29990 1476-2093 limits assumed): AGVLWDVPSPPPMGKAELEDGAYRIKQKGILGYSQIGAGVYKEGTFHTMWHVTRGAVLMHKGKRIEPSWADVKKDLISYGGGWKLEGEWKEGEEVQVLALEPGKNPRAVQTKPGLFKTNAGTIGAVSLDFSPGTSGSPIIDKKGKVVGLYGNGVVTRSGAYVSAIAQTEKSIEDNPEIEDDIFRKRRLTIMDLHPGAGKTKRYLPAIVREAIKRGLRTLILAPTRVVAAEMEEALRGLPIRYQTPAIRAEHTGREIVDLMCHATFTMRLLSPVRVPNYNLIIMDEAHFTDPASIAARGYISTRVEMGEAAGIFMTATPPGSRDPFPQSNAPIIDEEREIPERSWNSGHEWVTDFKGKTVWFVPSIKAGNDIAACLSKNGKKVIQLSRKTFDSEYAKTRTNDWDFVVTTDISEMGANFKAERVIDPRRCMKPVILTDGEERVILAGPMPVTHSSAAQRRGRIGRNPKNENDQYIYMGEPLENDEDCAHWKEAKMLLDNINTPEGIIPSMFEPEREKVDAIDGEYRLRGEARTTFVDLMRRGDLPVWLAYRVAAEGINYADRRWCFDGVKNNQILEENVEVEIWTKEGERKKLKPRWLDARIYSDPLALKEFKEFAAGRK
Type: functional, Thailand/16681/1984

| Line notation | IC50 |
| --- | --- |
| CC(C)n1cc(CNC(=O)[C@@H](NC(=O)OCc2ccccc2)c2ccc(OCc3ccccc3)cc2)cn1 | > 99.5 µM |
| NCc1cccc(NC(=O)c2cc(Cl)cc(N3CCCC3)c2)c1 | > 99.5 µM |
| CC1(NC(=O)c2cccc3c2CC(=O)N3)CCOCC1 | > 99.5 µM |
| CS(=O)(=O)NC(=O)c1cc(CN)cc([C@@H]2C[C@H]2c2cc(Cl)cc(NC(=O)OCc3ccccc3)c2)c1 | > 99.5 µM |
| O=Cc1ccc(N2CCC(C(=O)NCCN3CCc4ccccc43)CC2)cc1 | 20.3 µM |
| O=C(Nc1cc(Cl)cc([C@H](Nc2cccc(-c3nn[nH]n3)c2)C(=O)NCc2ccccc2)c1)OCc1ccccc1 | 8.05 µM |
| O=C1Cc2c(cccc2C(=O)N[C@H]2C[C@@H](c3ncc[nH]3)C2)N1 | > 99.5 µM |
| NCc1cccc(NC(=O)[C@@H](NC(=O)OCc2ccccc2)c2ccc(OCc3ncccn3)cc2)c1 | > 99.5 µM |
| O=C1Cc2c(cccc2C(=O)Nc2ccc(Cl)c(CO)n2)N1 | > 99.5 µM |
| NCc1cccc(NC(=O)[C@H](NC(=O)OCc2ccccc2)c2cccc(OCc3ccccn3)c2)c1 | > 99.5 µM |
| COCC=Cc1cccc([C@@H](NC(=O)OCc2ccccc2)C(=O)Nc2cccc(CN)c2)c1 | 56.9 µM |
| CCO[C@@H]1CC[C@H]1NC(=O)c1cccc2c1CC(=O)N2 | > 99.5 µM |
| NCCc1cc(C(=O)Nc2cc(-c3cccnc3)ccn2)no1 | > 99.5 µM |
| CCn1ccnc(N2CC[C@H](c3ccc(F)cc3)C2)c1=O | > 99.5 µM |
| Cc1noc(C)c1-c1ccc([C@@H](NC(=O)OCc2ccccc2)C(=O)Nc2cccc(CN)c2)cc1 | > 99.5 µM |
| N#Cc1csc(CN2CCC([C@H](NC(=O)OCc3ccccc3)C(=O)Nc3cccc(CN)c3)CC2)c1 | > 99.5 µM |
| CC(C)CNC(=O)c1cc(Cl)ccc1C=Cc1ccc(Oc2ccccc2Cl)cc1 | > 99.5 µM |
| COc1cc(C(=O)Nc2ccc3c(c2)CNC3)cc2cnn(C)c12 | > 99.5 µM |
| NCc1cccc([C@@H]2[C@H](C(=O)O)[C@H]2c2cc(N)cc(Cl)c2)c1 | > 99.5 µM |
| O=C1CCc2c(cc(Cl)cc2-c2ccc3[nH]c(C(=O)O)cc3c2)N1 | > 99.5 µM |
| NCc1cccc(NC(=O)[C@@H](NC(=O)OCc2ccccc2)C2CCN(S(=O)(=O)Cc3ncon3)CC2)c1 | > 99.5 µM |
| CN1CCC[C@H](c2nc3c(C(=O)Nc4ccc5c(c4)CNC5)cc(F)cc3[nH]2)C1=O | > 99.5 µM |
| CC(C)CO[C@]1(C)C(=O)Nc2cc(F)cc(C(=O)Nc3ccc4c(c3)CNC4)c21 | > 99.5 µM |
| C[C@H](NC(=O)c1cc(Cl)cc2[nH]ncc12)c1ccc2c(c1)CNC2 | > 99.5 µM |
| CC(=O)Nc1cccc(C(=O)Nc2ccc3c(c2)CNC3)n1 | > 99.5 µM |
| O=C(Nc1ccc2c(c1)CNC2)c1ncnc2sccc12 | > 99.5 µM |
| O=C(O)c1cc(Cl)ccc1NS(=O)(=O)c1ccc(-c2cccnc2)cc1 | 91.3 µM |
| NCc1cccc(NC(=O)c2cc(NC(=O)OCc3ccccc3)cc(C(F)(F)F)c2)c1 | > 99.5 µM |
| NCc1cccc(NC(=O)c2cc(Cl)ccc2NS(=O)(=O)c2ccccc2)c1 | > 99.5 µM |
| O=S(=O)(Nc1ccc(Cl)cc1CO)c1ccc(Oc2ccccc2Cl)cc1 | 78.8 µM |
| CS(=O)(=O)Nc1ccc(C(=O)Nc2nc3ccccc3s2)cc1 | > 99.5 µM |
| O=C(NCc1c[nH]nn1)c1cc(Cl)ccc1NS(=O)(=O)c1ccc(Oc2ccccc2Cl)cc1 | 29.9 µM |
| O=C(Nc1cc2c(cc1C1CC1)CNC2)c1cc(F)cc2[nH]ncc12 | 70.9 µM |
| O=C(Nc1ccc2c(c1)CNC2)c1cc(Cl)cc2[nH]c(C3(n4ccnn4)CC3)nc12 | > 99.5 µM |
| CC(=Cc1cccc(CN)c1)c1cc(Cl)cc(NC(=O)OCc2ccccc2)c1 | 63.2 µM |
| O=C(Cn1ccnc(N2CC[C@H](CO)C2)c1=O)N[C@H]1CCOC1 | > 99.5 µM |
| N=C(N)Nc1ccc(OC(=O)Nc2ccccc2)cc1 | > 99.5 µM |
| FC(F)(F)Oc1cc(Cl)cc2c(CN3CCC(c4cscn4)CC3)c[nH]c12 | > 99.5 µM |
| Cc1nc2cc(Cl)ccc2cc1C(=O)Nc1ccc2c(c1)CNC2 | > 99.5 µM |
| O=C(N[C@@H]1CCc2cn[nH]c2C1)c1cccc2c1NC(=O)[C@]1(CCCN1)C2 | > 99.5 µM |
